Where do the numbers come from? From the supplement of paper PMC10065799.

Target: FGFR3 (UniProt P22607)
Sequence (P22607 whole entry, looked up): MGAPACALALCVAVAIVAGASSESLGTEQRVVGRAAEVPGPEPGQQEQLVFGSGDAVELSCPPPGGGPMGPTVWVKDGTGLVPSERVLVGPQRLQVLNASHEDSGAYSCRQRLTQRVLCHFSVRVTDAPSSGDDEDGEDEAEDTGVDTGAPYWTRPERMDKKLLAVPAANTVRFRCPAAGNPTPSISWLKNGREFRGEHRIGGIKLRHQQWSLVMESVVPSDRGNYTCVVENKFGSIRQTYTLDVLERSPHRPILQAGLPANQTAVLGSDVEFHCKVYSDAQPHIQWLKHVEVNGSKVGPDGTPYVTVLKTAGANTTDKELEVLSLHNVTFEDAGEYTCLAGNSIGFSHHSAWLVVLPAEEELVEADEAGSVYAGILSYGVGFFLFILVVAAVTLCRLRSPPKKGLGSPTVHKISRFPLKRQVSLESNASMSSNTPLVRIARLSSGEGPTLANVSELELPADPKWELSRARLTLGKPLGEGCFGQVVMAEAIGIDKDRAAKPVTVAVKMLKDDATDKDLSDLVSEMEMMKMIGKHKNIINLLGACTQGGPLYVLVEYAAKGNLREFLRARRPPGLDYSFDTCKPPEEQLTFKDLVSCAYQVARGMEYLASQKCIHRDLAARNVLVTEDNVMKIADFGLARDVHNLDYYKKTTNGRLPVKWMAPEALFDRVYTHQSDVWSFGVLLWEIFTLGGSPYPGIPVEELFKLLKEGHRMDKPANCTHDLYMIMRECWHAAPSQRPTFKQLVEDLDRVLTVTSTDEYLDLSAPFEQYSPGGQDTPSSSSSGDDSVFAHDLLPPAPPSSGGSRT
Experiment: phosphorylation enrichment, bacterial display (enrichment ratio); higher = better substrate or ligand; peptides without Tyr show the background;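 further: 11-residue human phosphosite peptides and single-mutation variants displayed on the E. coli surface, counted by deep sequencing, each peptide's frequency after selection divided by its frequency in the unselected input library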;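 further: frequency after pTyr selection over input frequency; kinase dosed for 20-30% of maximal phosphorylation in three min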
phosphorylation enrichment below 0.7 gives 0; phosphorylation enrichment at or above it gives 1.

APAHKYHGGGG [HBD_Y146_L142P] | 0
CPYNLYAEQFS [HGD_Y40_L44F] | 1
ESDYTYSSSYE [SRPK2_Y427] | 1

QUERY: Does LNWIFYKDQTG [RS1_Y166_YF] have a reported phosphorylation enrichment of at least 0.7?
RESULT: 1

QUERY: Does TVFSDYLHPQY [CCPG1_Y569] have a reported phosphorylation enrichment of at least 0.7?
RESULT: 1

QUERY: Does LYNQDYPIHCV [GATM_Y227_S231C] have a reported phosphorylation enrichment of at least 0.7?
RESULT: 1

QUERY: Does YETVKYFNNER [ABCB7_Y345] have a reported phosphorylation enrichment of at least 0.7?
RESULT: 1

QUERY: Does TRSYDYTEGGD [FGF7_Y58_M59T] have a reported phosphorylation enrichment of at least 0.7?
RESULT: 0

QUERY: Does KDQPDYKYQPR [SOX9_Y172_H169Q] have a reported phosphorylation enrichment of at least 0.7?
RESULT: 0

QUERY: Does LFEDRYLLGTS [ASS1_Y87_YF] have a reported phosphorylation enrichment of at least 0.7?
RESULT: 1

QUERY: Does VMIFAYLLHRG [PTEN_Y138_C136Y_YF] have a reported phosphorylation enrichment of at least 0.7?
RESULT: 0

QUERY: Does KLVRLYAVVTR [LYN_Y306] have a reported phosphorylation enrichment of at least 0.7?
RESULT: 1

QUERY: Does HFVDEYDPTME [KRAS_Y32_I36M] have a reported phosphorylation enrichment of at least 0.7?
RESULT: 0

QUERY: Does KDHPDYKFQAR [SOX10_Y171_P175A_YF] have a reported phosphorylation enrichment of at least 0.7?
RESULT: 0

QUERY: Does REIIAYQPYGK [PRKCG_Y529_P524R] have a reported phosphorylation enrichment of at least 0.7?
RESULT: 0

QUERY: Does GGSDCYGSLRP [MYLK_Y846_R845C] have a reported phosphorylation enrichment of at least 0.7?
RESULT: 0

QUERY: Does LLSISYVGCSL [ADGRD1_Y571_S567L] have a reported phosphorylation enrichment of at least 0.7?
RESULT: 1

QUERY: Does IHKEFYDGLFP [BCR_Y561] have a reported phosphorylation enrichment of at least 0.7?
RESULT: 1

QUERY: Does PGIRMYQVQFN [LRFN1_Y454_YF] have a reported phosphorylation enrichment of at least 0.7?
RESULT: 0

QUERY: Does KRIKSYNQEND [RPGRIP1L_Y448_L447S] have a reported phosphorylation enrichment of at least 0.7?
RESULT: 0

QUERY: Does KEKLCYVALDF [ACTA1_Y220] have a reported phosphorylation enrichment of at least 0.7?
RESULT: 1

QUERY: Does IMWDSYTTNKV [GNB3_Y85_V81M] have a reported phosphorylation enrichment of at least 0.7?
RESULT: 0

###

Tested on: c-Abl (mouse)
Assay: phosphorylation enrichment, bacterial display (enrichment ratio); higher = better substrate or ligand; peptides without Tyr show the background
Each record's phosphorylation enrichment is compared with Low = under 0.6, Mid = from 0.6 up to 0.9, High = 0.9 and over to give its class.

Field: example entries. Status: answers known.
RDEHGYISRCF [HSPB1_Y133_Q128R] | High
CPYNLYAEQFS [HGD_Y40_L44F] | Mid
SARSAYQEAMD [SFN_Y151] | Mid
VVLVSYVPFSQ [SH2B1_Y624_S627F] | High
GKSFTYAAFHA [KCNT1_Y563] | Mid

QUERY: The entry to classify is LFIGQYSGKKE [L1CAM_Y1229_S1224L] ; which class holds it?
RESULT: High

QUERY: The entry to classify is CTNIHYNYMCN [TP53_Y234_T231N] ; which class holds it?
RESULT: High

###

Target: Hck (UniProt P08631)
Sequence (P08631 whole entry, looked up): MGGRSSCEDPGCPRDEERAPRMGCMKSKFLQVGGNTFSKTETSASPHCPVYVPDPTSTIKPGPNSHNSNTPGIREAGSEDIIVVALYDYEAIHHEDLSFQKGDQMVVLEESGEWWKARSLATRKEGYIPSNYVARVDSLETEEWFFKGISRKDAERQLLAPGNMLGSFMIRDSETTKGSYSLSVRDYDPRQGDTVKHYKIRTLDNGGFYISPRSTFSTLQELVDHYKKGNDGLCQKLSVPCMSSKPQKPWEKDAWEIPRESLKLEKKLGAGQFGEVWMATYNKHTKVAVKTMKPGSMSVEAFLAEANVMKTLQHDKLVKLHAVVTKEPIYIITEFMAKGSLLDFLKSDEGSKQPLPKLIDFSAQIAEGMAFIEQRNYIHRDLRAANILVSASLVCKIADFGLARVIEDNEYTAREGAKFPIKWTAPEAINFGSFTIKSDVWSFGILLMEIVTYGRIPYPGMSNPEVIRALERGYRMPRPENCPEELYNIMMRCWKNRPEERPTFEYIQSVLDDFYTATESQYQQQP
Experiment: phosphorylation enrichment, bacterial display (enrichment ratio); higher = better substrate or ligand; peptides without Tyr show the background
phosphorylation enrichment below 0.5 gives condition not met; phosphorylation enrichment at or above it gives condition met.

DTKDDYNALSV [IL17RB_Y457] | condition met
RSGNCYLDIRP [FBN1_Y1535] | condition met
FETDFYQKGGK [INSR_Y1190_R1191Q_YF] | condition not met
FHKALYTVRTF [PDE6C_Y266_S270T_YF] | condition met
LSCLAYSGKDA [FXN_Y205_S202C] | condition met
TQFWLYFAGNL [SLC25A5_Y112] | condition not met

QUERY: Does PGIRMYQVQFN [LRFN1_Y454_YF] have a reported phosphorylation enrichment of at least 0.5?
RESULT: condition not met

QUERY: Does PFRFIYMAVQH [PTPN11_Y515_Q510P_YF] have a reported phosphorylation enrichment of at least 0.5?
RESULT: condition met

QUERY: Does KLVQLYGVCTK [BTK_Y461] have a reported phosphorylation enrichment of at least 0.5?
RESULT: condition met

QUERY: Does RRIHCYRGHLW [VHL_Y112_S111C] have a reported phosphorylation enrichment of at least 0.5?
RESULT: condition not met

QUERY: Does TCFDKYTGNTF [FN1_Y101_YF] have a reported phosphorylation enrichment of at least 0.5?
RESULT: condition met

QUERY: Does RHFVFYFSFLL [PTEN_Y177_R173H_YF] have a reported phosphorylation enrichment of at least 0.5?
RESULT: condition not met

QUERY: Does YLELNYKEDEY [MME_Y502] have a reported phosphorylation enrichment of at least 0.5?
RESULT: condition met

QUERY: Does KDFETYQSFQN [CTNND2_Y1157_P1159S_YF] have a reported phosphorylation enrichment of at least 0.5?
RESULT: condition met

QUERY: Does QGIIIYKAAFF [SLC25A4_Y187_R188K_YF] have a reported phosphorylation enrichment of at least 0.5?
RESULT: condition met

QUERY: Does LKLKAYRFSIS [LCT_Y974_V971L] have a reported phosphorylation enrichment of at least 0.5?
RESULT: condition met

QUERY: Does TFEFKYPEGSS [TGM4_Y440_YF] have a reported phosphorylation enrichment of at least 0.5?
RESULT: condition met

QUERY: Does FCVDCYKNFVA [FHL1_Y213_YF] have a reported phosphorylation enrichment of at least 0.5?
RESULT: condition met

QUERY: Does IIGNGYFFHVF [MYBPC3_Y1135_R1138H_YF] have a reported phosphorylation enrichment of at least 0.5?
RESULT: condition not met

###

Molecular target: FGFR1 (UniProt P11362)
Sequence (P11362 whole entry, looked up): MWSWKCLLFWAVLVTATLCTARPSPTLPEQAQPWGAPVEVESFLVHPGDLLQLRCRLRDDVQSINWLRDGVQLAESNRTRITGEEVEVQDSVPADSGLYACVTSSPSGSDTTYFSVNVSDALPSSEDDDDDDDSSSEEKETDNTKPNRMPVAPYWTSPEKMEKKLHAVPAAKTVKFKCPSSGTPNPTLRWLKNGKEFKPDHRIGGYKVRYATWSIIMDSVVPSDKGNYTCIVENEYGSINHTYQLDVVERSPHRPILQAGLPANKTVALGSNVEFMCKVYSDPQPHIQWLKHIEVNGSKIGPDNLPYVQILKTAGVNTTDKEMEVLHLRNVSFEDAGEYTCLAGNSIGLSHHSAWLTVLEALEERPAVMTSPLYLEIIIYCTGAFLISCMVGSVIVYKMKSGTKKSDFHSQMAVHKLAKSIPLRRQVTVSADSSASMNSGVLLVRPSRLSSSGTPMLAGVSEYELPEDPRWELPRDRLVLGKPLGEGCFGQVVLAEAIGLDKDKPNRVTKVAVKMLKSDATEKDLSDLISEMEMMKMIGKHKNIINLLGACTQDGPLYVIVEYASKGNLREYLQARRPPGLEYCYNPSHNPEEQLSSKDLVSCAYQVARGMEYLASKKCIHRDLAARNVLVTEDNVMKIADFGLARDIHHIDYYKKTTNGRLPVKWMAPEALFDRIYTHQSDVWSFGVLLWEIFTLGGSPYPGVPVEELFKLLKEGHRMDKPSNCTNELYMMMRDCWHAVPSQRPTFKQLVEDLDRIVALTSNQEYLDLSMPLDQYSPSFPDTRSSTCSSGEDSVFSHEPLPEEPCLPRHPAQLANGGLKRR
Test: phosphorylation enrichment, bacterial display (enrichment ratio); higher = better substrate or ligand; peptides without Tyr show the background
quantity: phosphorylation enrichment
One number for each entry.

Study these solved cases before continuing.
GVRFTYTIDGS [DCX_Y105_I104T_YF] | 0.601
FRVAGYKTQGG [TIA1_Y383_E384K_YF] | 0.417

Record phosphorylation enrichment for all entries; do not skip any.
1. QEEPEYWDQET [HLA-A_Y83_G80E]
2. SISLRYEGRVY [ABL1_Y167]
3. ILDEAYVMAIV [EGFR_Y764_S768I]
4. REGAKYVSHDA [ASS1_Y113_G117D]
5. FDGKDYIALKE [HLA-A_Y147_N151K_YF]
6. ATATDYHTTSH [SLC4A1_Y46]

RESULT:
1: 0.897; 2: 0.484; 3: 0.963; 4: 0.648; 5: 0.398; 6: 0.408

Record phosphorylation enrichment for all entries; do not skip any.
1. RAEAQYLLVSN [LRIG1_Y1054]
2. EPGSLYGCGGG [ATM_Y2019_D2016G]

RESULT:
1: 2.61; 2: 0.52

Record phosphorylation enrichment for all entries; do not skip any.
1. REIIAYQPYGK [PRKCG_Y529_P524R]
2. PLDGEYFTRQI [TP53_Y327_L330R]

RESULT:
1: 0.329; 2: 0.387

Record phosphorylation enrichment for all entries; do not skip any.
1. QSSALYEDCYL [ASS1_Y83_R86C]
2. DLDPNYVVSSR [CKM_Y125_L127V]

RESULT:
1: 0.788; 2: 0.539

###

Biological target: FGFR1 (UniProt P11362)
Experiment: phosphorylation enrichment, bacterial display (enrichment ratio); higher = better substrate or ligand; peptides without Tyr show the background
phosphorylation enrichment below 0.6 gives condition not met; phosphorylation enrichment at or above it gives condition met.

RRIHSYRGRLW [VHL_Y112_H115R] | condition met
SASQEYHIVKK [PDZD2_Y557] | condition met
EDSEYYKAFEE [CASQ2_Y179] | condition not met
EQKKFYNAMKK [SCN5A_Y1495_YF] | condition not met
THQNSYQPGRK [CEFIP_Y210] | condition not met

QUERY: Does KLVRLYAVVTR [LYN_Y306] have a reported phosphorylation enrichment of at least 0.6?
RESULT: condition not met

QUERY: Does SECCKYKTDNP [OSMR_Y689_I691T] have a reported phosphorylation enrichment of at least 0.6?
RESULT: condition not met

QUERY: Does ELANLYHHVCM [BICD2_Y538] have a reported phosphorylation enrichment of at least 0.6?
RESULT: condition met

QUERY: Does ARLEYCENEKK [IRS1_Y47_Y47C] have a reported phosphorylation enrichment of at least 0.6?
RESULT: condition met

QUERY: Does QGIIIYKAAFF [SLC25A4_Y187_R188K_YF] have a reported phosphorylation enrichment of at least 0.6?
RESULT: condition met

QUERY: Does VNQSGYTLIRK [ATP6V0A2_Y688_R685Q] have a reported phosphorylation enrichment of at least 0.6?
RESULT: condition not met

QUERY: Does SMAKYYASEIA [ACADSB_Y373] have a reported phosphorylation enrichment of at least 0.6?
RESULT: condition not met

QUERY: Does PEVSGYCHYAD [TG_Y234_C237Y] have a reported phosphorylation enrichment of at least 0.6?
RESULT: condition not met
